Catalogue of molecules with associated melting point

Reference set, count: 2
{"smiles-representation": "O=C(c1cc2cc3oc(=O)[nH]c3cc2o1)N1CCC(OCc2ccccc2)CC1", "melting point": "217 to 219 °C"}
{"smiles-representation": "COc1ccc(-c2nc3cc(C(N)=O)ccc3[nH]2)c2ccc(C(F)(F)F)nc12", "melting point": "205 to 207 °C"}

We next turn to a different molecule, shown below.
Request the reported melting point associated with Cc1ccc(Cn2c(=O)[nH]c3cc(Cl)cc(Cl)c3c2=O)cc1
210 to 218 °C

---

result-type: melting point

{"smiles-representation": "Cc1nc(NCCc2ccc(OCc3nn[nH]n3)cc2)c2cc(C)sc2n1", "melting point": "205 °C"}
{"smiles-representation": "CCOC(=O)c1sc2cc(CO)ccc2c1Sc1cccc(OC)c1", "melting point": "110 to 112 °C"}
{"smiles-representation": "Nc1cc(-c2ccoc2)ccc1Nc1cccc(-n2cccc2)c1", "melting point": "194 to 195 °C"}
{"smiles-representation": "O=c1c(CCCc2ccoc2)cc2cccnc2n1-c1cccc([N+](=O)[O-])c1", "melting point": "185 to 186 °C"}

Request the reported melting point associated with Nc1nc2cccnc2c2c1nc(CO)n2Cc1cc(-c2ccc(F)cc2)no1
247 to 248 °C

---

result-type: melting point

Reference set, count: 3
{"compound": "CN(C)c1ccc([N+](=O)[O-])c(C(O)c2ccccc2)c1 (stereo not given)", "melting point": "95 to 97 °C"}
{"compound": "Cc1ccccc1-n1c(-c2sc(Nc3ccc(Cl)cc3)nc2C)nc2ccccc2c1=O", "melting point": "> 275 °C"}
{"compound": "CC(C)[C@H](C[C@H](O)[C@H](C)NC(=O)OC(C)(C)C)C(=O)NCc1cccnc1", "melting point": "147 to 149 °C"}

Request the reported melting point associated with CCC1CCc2cc3c(cc2C1)C(=O)c1cccc(OC)c1C3=O (stereo not given)
206 to 208 °C

Cool, now Cc1cc(C#N)cn2cc(-c3ccc(Br)o3)nc12
204 to 205 °C

Cool, now CC(C)CNCc1cc2cc(NC(=O)c3ccc(C#CC4(O)CC4)cc3)ccc2n1C
172 to 174 °C

Cool, now COC(=O)c1ccc(-c2nc(-c3ccc(Cl)cc3)no2)c(N)c1
227 to 228 °C

Cool, now CS(=O)(=O)Nc1cc(Cl)c(Cl)cc1Cl
144 to 145 °C

Cool, now [N-]=[N+]=Nc1cc(Cl)nc(-c2ccco2)n1
117 to 119 °C

Cool, now C=C(C)C=CCC(C)C1CCC2(C)C1(C)CCC1C3(C)CCC(OC(C)=O)CC3CCC12C (stereo not given)
120 to 125 °C

---

result-type: melting point

Request the reported melting point associated with CCOC(=O)c1nnc(SC)nc1NCc1ccc(OC)c(Cl)c1
101 to 105 °C

Cool, now CC(=O)OC1(C(C)=O)C(C)CC2C3CC(C)C4=CC(=O)C=CC4(C)C3C(O)CC21C (stereo not given)
270 to 272 °C

Cool, now O=Cc1cnc2n1CCc1ccccc1C2=C1CCN(C2CCN(C(=O)c3cc(C(F)(F)F)cc(C(F)(F)F)c3)C(Cc3ccccc3)C2)CC1 (stereo not given)
126 °C

Cool, now N#Cc1ccc(CN2CCCNC2=C[N+](=O)[O-])cn1
214 to 216 °C

Cool, now CC(=O)Nc1ccc(Sc2nc(Nc3cc(C)n[nH]3)cc(-c3ccccc3C)n2)cc1
212 to 214 °C

---

Catalogue of compounds with associated melting point

Reference set, count: 2
{"compound": "Cc1cccc(C)c1NC(=O)N=C1CCC(C)N1C (stereo not drawn)", "reported": "120 to 122 °C"}
{"compound": "CCC1(CC(=O)O)OCC(=O)c2c1[nH]c1ccccc21 (stereo not drawn)", "reported": "235 to 238 °C"}

Request the reported melting point associated with CCc1cc2c(s1)-n1c(C)nnc1C(CC(=O)O)N=C2c1ccc(Cl)cc1 (stereo not drawn)
198 to 202 °C

---

Catalogue of compounds with associated melting point

Reference set, count: 6
{"compound": "COc1ccccc1CNc1ccc2cc(Nc3nc(C)no3)ccc2n1", "reported": "175 °C"}
{"compound": "CC(=O)Nc1cc(-c2ccncc2)c[nH]c1=O", "reported": "> 300 °C"}
{"compound": "CCOC(=O)C1=C(C)NC(C(OCC)OCC)=C(C(=O)OCC)C1c1ccccc1[N+](=O)[O-] (stereo not given)", "reported": "80 to 81.5 °C"}
{"compound": "CC(C)(C)OC(=O)NC1C(=O)N2C(C(=O)OCc3ccc([N+](=O)[O-])cc3)=C(S)SCC12 (mixture of isomers)", "reported": "170 °C"}
{"compound": "CC(C)(C)C1=CC(=Nc2cccc(C(=O)O)c2)C=C(C(C)(C)C)C1=O", "reported": "230 to 231 °C"}
{"compound": "CCOC(=O)CNC(=O)C1(N(C(=O)c2ccc(N)cc2)N2CCCCC2)CCCCC1", "reported": "92 to 96 °C"}

Request the reported melting point associated with O=c1[nH]c2ccncc2c(=O)o1
180 °C

Cool, now COCCCNC(=O)OCCCc1ccc(OCCOC)cc1Oc1ncc(C(F)(F)F)cc1Cl
83.5 to 85 °C

Cool, now CCCCc1oc2ccccc2c1C(=O)NCc1ccc2cc(OCC#N)ccc2c1
142 to 143 °C

Cool, now CCCCCCSc1ssc(=S)c1-c1cc(C(C)(C)C)c(O)c(C(C)(C)C)c1
110 °C

Cool, now O=C(Cl)c1cnoc1-c1ccc(Cl)cc1Cl
46 to 50 °C

Cool, now CCOC(=O)CCc1cccc(C2COc3c(C)c(C)c(NC(=O)CC(C)(C)C)c(C)c32)c1 (stereo not given)
136 to 138 °C

Cool, now CCn1ncc2c1ncc1c(Nc3cccc(C(F)(F)F)c3)nc3cc(C)nn3c12
205 to 206 °C

Cool, now CC1=C(OCC(C)C)CC(C)(C)C1=O
63 °C

Cool, now CCN(CC)C(=O)CCc1nc(-c2cccs2)nc2ccccc12
106 °C

Cool, now CCCCc1nc(C(C)(O)CC)c(C(=O)O)n1Cc1ccc(-c2ccccc2-c2nnn[nH]2)cc1 (stereo not given)
152 to 154 °C

Cool, now COc1cc(OC)c2c(c1)S(=O)(=O)N(COC(=O)c1c(Cl)cccc1Cl)C2=O
200 to 201 °C

Cool, now COc1ccccc1NC(=O)Nc1nc(Nc2ccccc2-c2ccccc2)nc(N(CCC(=O)O)CCc2c[nH]c3ccccc23)n1
115 to 120 °C

Cool, now COC(=O)c1ccc(Cc2cccc3ccc(NC(=O)CC4CCCC4)cc23)c(OC)c1
172 to 174 °C

---

result-type: melting point

Reference set, count: 5
{"molecule": "CCOC(=O)NC(=O)C(C#N)=CNc1ccc(Cl)cc1", "result-type": "melting point", "reported": "177 to 183 °C"}
{"molecule": "CC1(C)CC(S(=O)(=O)Cc2cc3c(cc2Cl)OCO3)=NO1", "result-type": "melting point", "reported": "170 °C"}
{"molecule": "CCCCCCCCC(SCCCCCC)C(=O)Nc1c(F)ccc2ncccc12 (configuration not stated)", "result-type": "melting point", "reported": "74 to 75 °C"}
{"molecule": "CC1C(=O)N(c2ccc3c(c2)OCO3)C(=S)N1c1ccc(Oc2ccccc2)cc1 (configuration not stated)", "result-type": "melting point", "reported": "185 °C"}
{"molecule": "CN1C(=O)[C@H](NC(=O)CCc2ccc(Cl)cc2Cl)N=C(c2ccccc2)c2cc(NS(C)(=O)=O)ccc21", "result-type": "melting point", "reported": "130 to 148 °C"}

Request the reported melting point associated with CCOC(=O)c1c(SC)c(N=O)c2ccccn12
134 to 135 °C

Cool, now CC(=O)c1nc(C)c[nH]1
113 to 115 °C

Cool, now Cc1noc(C)c1C(=O)Nc1ccc(-n2ccc(C(F)(F)F)n2)cc1
177 to 178 °C

Cool, now COc1ccc2c(c1)c1c(n2Cc2ccc(C(C)(C)C)cc2)COC(=O)C1=O
238 to 239 °C

Cool, now CC1(C)c2ccccc2N2Cc3cc([N+](=O)[O-])ccc3OC21C (configuration not stated)
180 °C

Cool, now CCCCOc1c(N(C)C(=O)OC(C)(C)C)n(CC(C)(C)C)c(=O)c2ccc(CC(N)=O)cc12
114 to 115 °C

Cool, now CC(C)(Oc1ccc(CNc2ccc(Cl)cc2)cc1)C(=O)O
155 to 158 °C

Cool, now COc1cccc2c1oc1ccccc12
49 to 50 °C

Cool, now COC(=O)C(Cc1ccccc1)NC(=S)Nc1nc2ccccc2s1 (racemic)
168 to 169 °C

Cool, now CCCCc1nc2cccc(C)c2c(=O)n1Cc1ccc(C2(C(=O)O)CC=CC2)s1
150 to 151 °C

Cool, now O=C(OCc1ccccc1)c1ccc(OCc2cccc(COc3ccc(C(=O)OCc4ccccc4)cc3Cl)c2)c(Cl)c1
95.8 to 97 °C

Cool, now COc1cccnc1Oc1cccc(C#N)c1
88 to 89 °C

Cool, now COc1ccc(CC(=O)c2ccc(OC)cc2O)cc1
101 to 102 °C

Cool, now CCOC(=O)C(OC)C(=O)Nc1ccc(Br)cc1C (configuration not stated)
93 to 95 °C

Cool, now CCOC(=O)Nc1cccc(Nc2c3cccc(C)c3nc3c(C(=O)NCCN(C)C)cccc23)c1C
182 to 183 °C

Cool, now CC(C)=C(C(=O)O)c1cc(C(C)C)c(O)c2c(Cc3ccccc3)cccc12
264 to 266 °C

Cool, now CC(O)=C(C(=O)OC(c1ccccc1)c1ccccc1)N1C(=O)C(NC(=O)COc2ccccc2)C1SS(=O)(=O)c1ccc(C)cc1 (configuration not stated)
150 to 152 °C

Cool, now C#CCOc1cc(C(=O)O)cc(S(N)(=O)=O)c1-c1ccccc1
154 to 155 °C

Cool, now O=C1CC[C@@H](CO)N1Cc1ccccc1
82 to 84 °C

Cool, now Cc1c(COC(=O)N(c2ccccc2)c2ccccc2)cccc1OCC(=O)O
180 to 181 °C

Cool, now NS(=O)(=O)c1nc2ccc(OC(=O)Cc3ccccc3)cc2s1
177 to 179 °C

Ref: a melting point compilation (Tetko et al.; mined from patent text by program, amines drawn as free bases though some values may be those of a salt)
